System: Plasmodium falciparum
Assay: Hit confirmation in dose-response curve in NF54 nanoGlo assay, at 72h
Format: functional, organism-based, Erythrocyte
Parameters: timepoint 72 hour
Settings: Plasmodium falciparum, NF54, Erythrocyte, 72 h
pIC50: −log10 of the molar value.
Below: a set of entries, each annotated with reported pIC50.
Metric: pIC50

>  <Molecule>
Cc1ccc(O)c(CNCC2(c3ccccc3Cl)CCOCC2)n1

>  <Metric>
pIC50

>  <Number>
6.68

$$$$
>  <Molecule>
O=C(c1cc(-c2ccco2)n[nH]1)N1CCC(N2CCC(Oc3ccccc3F)CC2)CC1

>  <Metric>
pIC50

>  <Number>
5.55

$$$$
>  <Molecule>
C[N+]1(CCCC(=O)c2ccc3c(c2)OCCO3)CCC(c2ccccc2)C1 (stereo not given)

>  <Metric>
pIC50

>  <Number>
5.59

$$$$
>  <Molecule>
COc1ccc(C2=CN(CC(=O)c3ccc(Cl)cc3)C3=CCCCCN23)cc1

>  <Metric>
pIC50

>  <Number>
5.53

$$$$
>  <Molecule>
CC1CCC(c2noc([C@H]3CCO[C@@H]3c3cncc(Br)c3)n2)CC1 (stereo not given in full)

>  <Metric>
pIC50

>  <Number>
5.54

$$$$
>  <Molecule>
CCC[N+]1(CC#C[C@@](O)(c2ccccc2)C(C)(CC)CC)CCCCC1

>  <Metric>
pIC50

>  <Number>
5.47

$$$$
>  <Molecule>
O=C(Nc1ccc(C2(c3ccc(NC(=O)c4ccc(F)cc4)cc3)c3ccccc3C(=O)c3ccccc32)cc1)c1ccc(F)cc1

>  <Metric>
pIC50

>  <Number>
5.69

$$$$
>  <Molecule>
CC1CCN(Cc2ccc(CNCc3c[nH]nc3-c3ccc(F)cc3)cc2)CC1

>  <Metric>
pIC50

>  <Number>
5.46

$$$$
>  <Molecule>
CCN1CCN(C(=O)c2ccccc2N2CCC(NC(=O)c3cccc(Br)c3)CC2)CC1

>  <Metric>
pIC50

>  <Number>
5.60

$$$$
>  <Molecule>
O=C(CCc1ccc(Cl)c(C(F)(F)F)c1)N1CC[C@H](N2CCc3ccccc3C2)C1

>  <Metric>
pIC50

>  <Number>
5.26

$$$$
>  <Molecule>
CN(Cc1ccc(-c2ccccc2)cc1)c1cc([C@H]2C[C@@H](N)C2)nc(N)n1

>  <Metric>
pIC50

>  <Number>
5.66

$$$$
>  <Molecule>
CNc1nc(NCCc2ccccc2)nc2ccccc12

>  <Metric>
pIC50

>  <Number>
6.04

$$$$
>  <Molecule>
C[C@@H](CNc1nc(-c2ccccc2)nc2nc(-c3ccc(Cl)cc3)oc12)N1CCCCC1

>  <Metric>
pIC50

>  <Number>
5.47

$$$$
>  <Molecule>
Cc1ccc(CN2CCN(C[C@@H](O)Cn3c4ccccc4n4c(=O)cc(C)c(C#N)c34)CC2)c(C)c1

>  <Metric>
pIC50

>  <Number>
5.87

$$$$
>  <Molecule>
CCC1=Nc2ccccc2N=C(NC(=O)C(C)C)[C@H]1c1ccc(F)cc1

>  <Metric>
pIC50

>  <Number>
5.61

$$$$
>  <Molecule>
Oc1nc(N2CCOC3(CCCC3)C2)ncc1F

>  <Metric>
pIC50

>  <Number>
5.59

$$$$
>  <Molecule>
Cc1cc(N2CC(OCc3ccccc3)C2)nc(Nc2cccc(O)c2)n1

>  <Metric>
pIC50

>  <Number>
5.86

$$$$
>  <Molecule>
COc1ccc(C(=O)N(C(=O)c2ccc(OC)cc2)c2c3c(nc4ccccc24)CCCC3)cc1

>  <Metric>
pIC50

>  <Number>
5.64

$$$$
>  <Molecule>
CCOc1ccc2ccccc2c1C(=O)Nc1cc(C)nn1-c1nc2c(c(=O)[nH]1)CCC2

>  <Metric>
pIC50

>  <Number>
6.23

$$$$
>  <Molecule>
N#Cc1c(-c2ccccc2)cc(-c2ccccc2)nc1S(=O)(=O)Cc1ccccc1

>  <Metric>
pIC50

>  <Number>
5.51

$$$$

Data origin: ChEMBL document CHEMBL4888484
